Numbers sourced from patent US5563142A.

In this section we review reported inhibition at 100 µM values for a set of molecules.
molecular target: viral reverse transcriptase (Human immunodeficiency virus type 1 group M subtype B, UniProt P04585); construct: Viral reverse transcriptase is found in extracts from bacterial clones; made in house; host or cells: Escherichia coli (extracts of bacterial clones, by the procedure of Larder et al., EMBO J. 6:3133-3137, 1987); assay: Viral reverse transcriptase inhibition, cell free assay; format: biochemical, human immunodeficiency virus (HIV-1); details: read-out: RT % INHIBITION (100 μM), 100 μM; poly rC or poly rG template
Where a name gives a salt, the structure may show the parent alone.

As a guide, the following entries are already answered.
CC(C)Nc1cccnc1N1CCN(C(=O)c2cc3cc([N+](=O)[O-])ccc3[nH]2)CC1: 72%
CCNc1cccnc1N1CCN(C(=O)c2cccc3c2NCC3)CC1: 48 to 59%
CC(C)Nc1cccnc1N1CCN(C(=O)c2cc3cc(OCc4ccccc4)ccc3[nH]2)CC1: 69 to 84%
CC(C)(C)Nc1nccnc1N1CCN(C(=O)c2cc3cc(F)ccc3[nH]2)CC1: 55%
CCNc1cccnc1N1CCN(C(=O)c2cc3cc(OC)c(OC)cc3[nH]2)CC1: 76 to 84%
Cc1cccc2[nH]c(C(=O)N3CCN(c4ncccc4NC(C)C)CC3)cc12: 52 to 80%
CCNc1cccnc1N1CCN(C(=O)c2cc3cc(F)ccc3[nH]2)CC1: 92 to 95%
COc1c(C)cc(C(=O)N2CCN(c3ncccc3NC(C)C)CC2)cc1C: 74%
CCN(CC)c1cccnc1N1CCN(C(=O)c2cc3ccccc3[nH]2)CC1: 65 to 71%
CCNc1cccnc1N1CCN(C(=O)c2cc3cc(OCc4ccccc4)ccc3[nH]2)CC1: 57 to 70%

inhibition at 100 µM reported for this molecule COc1ccc2cc(C(=O)N3CCN(c4ncccc4NC(C)C)CC3)[nH]c2c1 : 96 to 98%

inhibition at 100 µM reported for this molecule CNc1cccnc1N1CCN(C(=O)c2cc3cc(F)ccc3[nH]2)CC1 : 82 to 88%

inhibition at 100 µM reported for this molecule C=CCNc1cccnc1N1CCN(Cc2cc(C)c(OC)c(C)c2)CC1 [Example 116, hydrochloride] : 45 to 52%

inhibition at 100 µM reported for this molecule O=C(c1cc2ccccc2[nH]1)N1CCN(c2nccnc2NC2CC2)CC1 : 52 to 65%

inhibition at 100 µM reported for this molecule O=C(c1cc2ccccc2[nH]1)N1CCN(c2ncccc2N2CCCC2)CC1 : 65 to 76%

inhibition at 100 µM reported for this molecule CCNc1cccnc1N1CCN(C(=O)c2cc3cc(OC)ccc3[nH]2)CC1 : 85 to 88%

inhibition at 100 µM reported for this molecule CCNc1cccnc1N1CCCN(C(=O)c2cc3ccccc3[nH]2)CC1 : 90 to 98%

inhibition at 100 µM reported for this molecule CCC(C)Nc1cccnc1N1CCN(C(=O)c2cc3ccccc3[nH]2)CC1 (stereo not drawn) : 93 to 95%

====

test system: HIV in primary human peripheral blood lymphocytes; assay: Primary PBL assay: inhibition of viral replication (p24 & RNA); format: cell-based; conditions: Human immunodeficiency virus 1, Lymphocyte, primary human lymphocytes infected with HIV, days three and four, read-out: PBL INHIBITION OF VIRAL REPLICATION (p24 & RNA) ED50
Where a name gives a salt, the structure may show the parent alone.
In this section we review reported EC50 values for a set of compounds.

As a guide, the following entries are already answered.
C=CCNc1cccnc1N1CCN(Cc2cc(C)c(OC)c(C)c2)CC1 [Example 116, hydrochloride]: < 10000 nM
CCNc1cccnc1N1CCCN(C(=O)c2cc3cc(F)ccc3[nH]2)CC1: 10 to 100 nM
CCNc1cccnc1N1CCN(C(=O)c2cc3c(C)c(OC)c(C)c(C)c3[nH]2)CC1: 10000 nM
CC(C)Nc1ccnnc1N1CCN(C(=O)c2cc3cc(F)ccc3[nH]2)CC1: 100 nM
CC(C)Nc1ccnnc1N1CCN(C(=O)c2cc3ccccc3[nH]2)CC1: ≤ 100 nM
CNc1cccnc1N1CCN(C(=O)c2cc3cc(F)ccc3[nH]2)CC1: 1000 nM
CC(C)Nc1cccnc1N1CCN(C(=O)c2cc3cc(NS(C)(=O)=O)ccc3[nH]2)CC1: ≤ 1 nM
COc1ccc2[nH]c(C(=O)N3CCN(c4ncccc4NC(C)C)CC3)cc2c1: 3 nM

Now consider the entry below.
Entry CCC(C)Nc1cccnc1N1CCN(C(=O)c2cc3ccccc3[nH]2)CC1 (stereo not drawn) , HIV in primary human peripheral blood lymphocytes data, EC50 value: 1 to 10 nM
